Entry source: patent US20020048572A1

Target: LXRα ligand-binding domain (Homo sapiens)
Sequence (Q13133 209-447 limits assumed): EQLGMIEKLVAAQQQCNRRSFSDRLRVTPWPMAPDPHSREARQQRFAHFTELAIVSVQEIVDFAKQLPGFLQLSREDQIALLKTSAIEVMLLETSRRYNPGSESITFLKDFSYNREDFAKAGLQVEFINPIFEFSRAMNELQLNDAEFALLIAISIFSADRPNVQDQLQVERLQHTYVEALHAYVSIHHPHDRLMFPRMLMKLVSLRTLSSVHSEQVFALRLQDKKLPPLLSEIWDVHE
Experiment: biochemical
Test Readout: pEC50
Please keep in mind that pEC50 is minus log10 of the molar concentration; only the number is needed.

Field pEC50 (entry C[C@H](CC[C@@H]1OC1(C)C)[C@H]1CC[C@H]2[C@@H]3CC=C4C[C@@H](O)CC[C@]4(C)[C@H]3CC[C@]12C [24,25-epoxycholesterol, 24(S),25-epoxycholesterol] ) reads 6.52
